Source listed as patent US20250171437A1.

AC50: recorded values
biological target: human PAH with the R408W mutation (A375 R408W cells) (Homo sapiens, UniProt P00439, R408W); construct: expressed in transfected cells; assay: Cell Based Phenylalanine Flux Assay; conditions: A375 cells expressing R408W PAH; 24 hrs with compound, then 20 μM sepiapterin and 800 μM 13C9,15N-Phenylalanine for 4 hours; 13C-Tyrosine by LC-MS; average where tested multiple times

1) Cc1ccc2nc(C3c4nc[nH]c4CCN3C(=O)c3cnn4cc(CCN(C)C)ccc34)oc2c1 (stereo not drawn) | ≥ 5 µM
2) O=C(c1cnn2cc(N3CCC4(CC3)CC4)ccc12)N1CCc2[nH]cnc2C1c1nc2cc(F)ccc2o1 (stereo not drawn) | ≥ 5 µM
3) O=C(Cc1cnn2ccccc12)N1CCc2[nH]cnc2C1c1nc2cc(F)ccc2o1 (stereo not drawn) | ≥ 5 µM
4) O=C(c1cnn2cc(N3CCC(O)CC3)ccc12)N1CCc2[nH]cnc2C1c1nc2c(F)cccc2o1 (stereo not drawn) | 1 to 5 µM
5) CC(C)(O)c1ncc(C(=O)N2CCc3[nH]cnc3C2c2nc3cc(F)cc(F)c3o2)o1 (stereo not drawn) | 1 to 5 µM

Continue with the compound presented below.
Specify AC50 for COCc1ncc(C(=O)N2CCc3[nH]cnc3C2c2nc3cc(F)ccc3o2)o1 (stereo not drawn) , system human PAH with the R408W mutation (A375 R408W cells) (Homo sapiens, UniProt P00439, R408W).
1 to 5 µM

---

Biological target: human PAH with the R408W mutation (A375 R408W cells) (Homo sapiens, UniProt P00439, R408W)
Construct: expressed in transfected cells
Sequence (P00439 1-452 R408W): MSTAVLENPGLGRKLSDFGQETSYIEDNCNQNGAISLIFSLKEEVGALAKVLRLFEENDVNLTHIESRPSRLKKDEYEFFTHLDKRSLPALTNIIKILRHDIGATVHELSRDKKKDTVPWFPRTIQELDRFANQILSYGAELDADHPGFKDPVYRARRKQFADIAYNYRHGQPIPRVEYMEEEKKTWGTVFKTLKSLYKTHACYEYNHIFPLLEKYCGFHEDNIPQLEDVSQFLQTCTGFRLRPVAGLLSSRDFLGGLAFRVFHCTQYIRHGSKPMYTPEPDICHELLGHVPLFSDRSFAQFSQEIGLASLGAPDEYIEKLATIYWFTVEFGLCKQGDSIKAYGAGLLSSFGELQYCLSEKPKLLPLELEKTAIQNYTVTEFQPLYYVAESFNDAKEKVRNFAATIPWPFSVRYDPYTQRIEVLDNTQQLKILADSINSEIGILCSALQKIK
Test: Cell Based Phenylalanine Flux Assay
Settings: A375 R408W cells; 24 hrs with compound, then 20 μM sepiapterin and 800 μM 13C9,15N-Phenylalanine for 4 hours; 13C-Tyrosine by LC-MS; average where tested multiple times
reportedEndpoint: AC50

Please review the following examples before continuing.
1) O=C(c1cnn2ccccc12)N1Cc2[nH]cnc2[C@H]1c1nc2ccccc2o1 [Example 929] | 1000 to 5000 nM
2) Cc1nc(-c2ccccn2)oc1C(=O)N1CCc2[nH]cnc2[C@H]1c1nc2cccc(F)c2o1 [Example 594] | ≤ 500 nM
3) Cc1cccc2oc([C@@H]3c4nc[nH]c4CCN3C(=O)c3ncnn3C)nc12 [Example 901] | 500 to 1000 nM

Continue with the compound presented below.
Specify AC50 for Cn1ccc(-c2nnc(C(=O)N3CCc4[nH]cnc4[C@H]3c3nc4ccccc4o3)o2)n1 [Example 843] , system human PAH with the R408W mutation (A375 R408W cells) (Homo sapiens, UniProt P00439, R408W).
≤ 500 nM

---

AC50: recorded values
Target: human PAH with the R408W mutation (A375 R408W cells) (Homo sapiens, UniProt P00439, R408W)
Construct: expressed in transfected cells
Sequence (P00439 1-452 R408W): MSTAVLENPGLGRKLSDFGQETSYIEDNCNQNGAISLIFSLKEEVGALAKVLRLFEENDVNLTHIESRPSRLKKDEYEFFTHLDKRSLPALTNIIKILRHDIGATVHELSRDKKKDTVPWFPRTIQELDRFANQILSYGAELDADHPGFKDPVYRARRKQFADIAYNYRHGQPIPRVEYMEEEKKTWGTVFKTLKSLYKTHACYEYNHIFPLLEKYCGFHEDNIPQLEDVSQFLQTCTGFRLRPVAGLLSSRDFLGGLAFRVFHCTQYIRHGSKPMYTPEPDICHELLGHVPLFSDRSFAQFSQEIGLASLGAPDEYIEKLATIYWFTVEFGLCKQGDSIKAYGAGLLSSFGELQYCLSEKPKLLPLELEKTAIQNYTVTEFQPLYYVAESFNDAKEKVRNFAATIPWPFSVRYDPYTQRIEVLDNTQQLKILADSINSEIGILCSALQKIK
Test: Cell Based Phenylalanine Flux Assay
Settings: A375 R408W cells; 24 hrs with compound, then 20 μM sepiapterin and 800 μM 13C9,15N-Phenylalanine for 4 hours; 13C-Tyrosine by LC-MS; average where tested multiple times

1) O=C(c1ccnn1CC(F)F)N1CCc2[nH]cnc2[C@H]1c1nc2cccc(F)c2o1 [Example 847] | ≤ 500 nM

Specify reported AC50 for the molecule shown: CC(C)(O)c1nc(C(F)F)c(C(=O)N2CCc3[nH]cnc3[C@@H]2c2nc3c(C(F)(F)F)cccc3o2)o1 [Example 464]
500 to 1000 nM

Specify reported AC50 for the molecule shown: CCn1cnnc1C(=O)N1CCc2[nH]cnc2[C@H]1c1nc2cc(F)ccc2o1 [Example 885]
1000 to 5000 nM

Specify reported AC50 for the molecule shown: Cc1ccc2oc([C@@H]3c4nc[nH]c4CCN3C(=O)c3nnc(-c4ncccc4F)o3)nc2c1 [Example 653]
≤ 500 nM

---

target: human PAH with the R408W mutation (A375 R408W cells) (Homo sapiens, UniProt P00439, R408W); construct: expressed in transfected cells; test: Cell Based Phenylalanine Flux Assay; settings: A375 cells expressing R408W PAH; 24 hrs with compound, then 20 μM sepiapterin and 800 μM 13C9,15N-Phenylalanine for 4 hours; 13C-Tyrosine by LC-MS; average where tested multiple times
AC50: recorded values

Specify reported AC50 for the compound shown: O=C(c1cnc(-c2ccccn2)s1)N1CCc2[nH]cnc2C1c1nc2ccc(Br)cc2o1 (stereo not drawn)
1 to 5 µM

Specify reported AC50 for the compound shown: Cn1nc(C(C)(C)C)nc1C(=O)N1CCc2[nH]cnc2C1c1nc2cccc(F)c2o1 (stereo not drawn)
1 to 5 µM

Specify reported AC50 for the compound shown: O=C(c1nnc(-c2cnn(C(F)F)c2)o1)N1CCc2[nH]cnc2C1c1nc2cccc(C(F)(F)F)c2o1 (stereo not drawn)
1 to 5 µM

Specify reported AC50 for the compound shown: COC(C)(C)c1nc(C)c(C(=O)N2CCc3[nH]cnc3C2c2nc3cc(F)ccc3o2)o1 (stereo not drawn)
≥ 5 µM

Specify reported AC50 for the compound shown: COCCOc1ccc2c(C(=O)N3CCc4[nH]cnc4C3c3nc4cc(F)ccc4o3)cnn2c1 (stereo not drawn)
≥ 5 µM

Specify reported AC50 for the compound shown: CC(C)(O)c1cc(C(=O)N2CCc3[nH]cnc3C2c2nc3cccc(F)c3o2)on1 (stereo not drawn)
1 to 5 µM

Specify reported AC50 for the compound shown: O=C(c1nnc(-c2cc[nH]n2)o1)N1CCc2[nH]cnc2C1c1nc2cc(F)ccc2o1 (stereo not drawn)
1 to 5 µM

Specify reported AC50 for the compound shown: O=C(c1nnc(-c2ncccc2F)o1)N1CCc2[nH]cnc2C1c1nc2cc(F)ccc2o1 (stereo not drawn)
1 to 5 µM

Specify reported AC50 for the compound shown: Cn1cncc1-c1nnc(C(=O)N2CCc3[nH]cnc3C2c2nc3cc(F)ccc3o2)o1 (stereo not drawn)
≥ 5 µM

---

AC50: recorded values
biological target: human PAH with the R408W mutation (A375 R408W cells) (Homo sapiens, UniProt P00439, R408W); construct: expressed in transfected cells; assay: Cell Based Phenylalanine Flux Assay; settings: A375 R408W cells; 24 hrs with compound, then 20 μM sepiapterin and 800 μM 13C9,15N-Phenylalanine for 4 hours; 13C-Tyrosine by LC-MS; average where tested multiple times

1. Cc1cccc2nc([C@H]3c4nc[nH]c4CCN3C(=O)c3ocnc3C(F)F)oc12 [Example 394] | 500 to 1000 nM
2. O=C(c1ccnn1C(F)(F)F)N1CCc2[nH]cnc2[C@H]1c1nc2cccc(F)c2o1 [Example 289] | 500 to 1000 nM
3. O=C(c1ocnc1C(F)F)N1CCc2[nH]cnc2[C@H]1c1nc2cc(F)c(F)cc2o1 [Example 295] | 500 to 1000 nM
4. O=C(c1ccnn1C(F)F)N1CCc2[nH]cnc2[C@@H]1c1nc2cccc(F)c2o1 [Example 196] | 1000 to 5000 nM
5. Cn1cnc(-c2nc(C(F)F)c(C(=O)N3CCc4[nH]cnc4[C@H]3c3nc4cccc(F)c4o3)o2)c1 [Example 892] | ≤ 500 nM
6. O=C(CCc1ncco1)N1CCc2[nH]cnc2[C@@H]1c1nc2cccc(F)c2o1 [Example 388] | ≥ 5000 nM
7. O=C(c1nnc(-c2ccn(C(F)F)n2)o1)N1CCc2[nH]cnc2[C@H]1c1nc2cccc(C(F)(F)F)c2o1 [Example 854] | ≤ 500 nM
8. CC(C)(O)c1nc(C(F)F)c(C(=O)N2CCc3[nH]cnc3[C@H]2c2nc3cccc(C(F)(F)F)c3o2)o1 [Example 453] | ≤ 500 nM

Specify reported AC50 for the compound shown: Cc1nc(-c2ccccn2)oc1C(=O)N1CCc2[nH]cnc2[C@@H]1c1nc2cc(F)ccc2o1 [Example 32]
1000 to 5000 nM

Specify reported AC50 for the compound shown: CC(C)(O)c1nc(C(F)F)c(C(=O)N2CCc3[nH]cnc3[C@H]2c2nc3cccc(OC(F)(F)F)c3o2)o1 [Example 529]
≤ 500 nM

Specify reported AC50 for the compound shown: CC(C)(O)c1nc(C(F)F)c(C(=O)N2CCc3[nH]cnc3[C@H]2c2nc3c(Cl)cccc3o2)o1 [Example 435]
≤ 500 nM

Specify reported AC50 for the compound shown: O=C(c1nnc(-c2ccn(C(F)F)n2)o1)N1CCc2[nH]cnc2[C@H]1c1nc2ccccc2o1 [Example 846]
≤ 500 nM

Specify reported AC50 for the compound shown: Cc1cccc2nc([C@@H]3c4nc[nH]c4CCN3C(=O)c3oc(C(C)(C)O)nc3C(F)F)oc12 [Example 392]
≤ 500 nM

Specify reported AC50 for the compound shown: COc1ccc2oc([C@H]3c4nc[nH]c4CCN3C(=O)c3oc(C(C)(C)O)nc3C(F)F)nc2c1 [Example 340]
1000 to 5000 nM

Specify reported AC50 for the compound shown: CC(F)(F)c1ncoc1C(=O)N1CCc2[nH]cnc2[C@@H]1c1nc2cccc(F)c2o1 [Example 619]
1000 to 5000 nM
